Biological target: human PCSK9 (proprotein convertase subtilisin kexin type 9) (human, UniProt Q8NBP7 31-692)
Sequence (Q8NBP7 31-692 limits assumed): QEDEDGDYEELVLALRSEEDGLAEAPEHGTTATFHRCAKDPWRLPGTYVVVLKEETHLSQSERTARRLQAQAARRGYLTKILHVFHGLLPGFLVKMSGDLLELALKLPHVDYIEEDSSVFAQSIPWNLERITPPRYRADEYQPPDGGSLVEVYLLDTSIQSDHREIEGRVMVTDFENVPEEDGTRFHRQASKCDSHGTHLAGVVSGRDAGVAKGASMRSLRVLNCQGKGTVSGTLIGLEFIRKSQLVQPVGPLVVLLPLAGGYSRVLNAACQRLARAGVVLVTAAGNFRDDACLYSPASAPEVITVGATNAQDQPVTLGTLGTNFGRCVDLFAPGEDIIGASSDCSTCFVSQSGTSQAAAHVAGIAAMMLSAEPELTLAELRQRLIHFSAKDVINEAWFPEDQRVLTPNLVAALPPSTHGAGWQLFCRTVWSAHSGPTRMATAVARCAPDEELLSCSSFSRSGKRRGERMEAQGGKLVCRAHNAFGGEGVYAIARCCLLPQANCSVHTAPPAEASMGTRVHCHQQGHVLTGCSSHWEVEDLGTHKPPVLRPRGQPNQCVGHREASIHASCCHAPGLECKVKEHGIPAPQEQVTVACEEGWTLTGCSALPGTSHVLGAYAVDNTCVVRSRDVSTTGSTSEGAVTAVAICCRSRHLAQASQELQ
Test: cell-based or functional assay
EXPERIMENTAL_ENDPOINT: LDLR Depletion (% inhibition at 75 nM) (%)

>>> numeric_value("2012A04 (designed binder) MGVSDVPRDLEVVAATPTSLLISWRPPSNGHGYYRITYGETGGNSPVQEFTVPVNEGTATISGLKPGVDYTITVYAVEFPFKWSGYYHRPISINYRTEIDKPSQHHHHHH")
144
>>> numeric_value("2381B10 (designed binder) MGVSDVPRDLEVVAATPTSLLISWDAPAGGGYGYYRITYGETGGNSPVQEFTVPVSKGTATISGLKPGVDYTITVYAVEYNFIGAGYYHRPISINYRTEIDKPSQHHHHHH")
96.4
>>> numeric_value("2382F09 (designed binder) MGVSDVPRDLEVVAATPTSLLISWDAPAAAYGYYRITYGETGGNSPVQEFTVPVSKGTATISGLKPGVDYTITVYAVEYDFPGSGYYHRPISINYRTEIDKPSQHHHHHH")
110
>>> numeric_value("2451B02 (designed binder) MGVSDVPRDLEVVAATPTSLLISWDAPAAAYGYYRITYGETGGNSPVQEFTVPVSKGTATISGLKPGVDYTITVYAVEFDYPGSGYYHRPISINYRTEIDKPSQHHHHHH")
71.4
>>> numeric_value("2381A04 (designed binder) MGVSDVPRDLEVVAATPTSLLISWEPFSRLPGGGEYYRITYGETGGNSPLQQFTVPGSKGTATISGLKPGVDYTITVYAVEYPYPFSGYYHRPISINYRTEIDKPSQHHHHHH")
100
>>> numeric_value("2382H03 (designed binder) MGVSDVPRDLEVVAATPTSLLISWDAPAEGAYGYYRITYGETGGNSPVQEFTVPVSKGTATISGLKPGVDYTITVYAVEYPYPFAGYYHRPISINYRTEIDKPSQHHHHHH")
102
